TESTED TARGET: CD4-gp140 complex (HIV 89.6 gp140 bound to sCD4) (HIV 89.6 (Clade B) primary isolate), Q73372
PROTOCOL DESCRIPTION: SPR (FIG. 10D); the legend of the same figure prints 280 nM
pKd: −log10 of the molar value.
OBSERVABLE: pKd

1. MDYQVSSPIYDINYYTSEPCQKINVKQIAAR (modifications not checked) [CCR5-D1 peptide] ... 6.55

Values compiled from patent US7033593.
